For each entry below, report its pIC50 value.
Tested on: prostate adenocarcinoma (PC-3)
Assay: in vitro cytotoxicity, MTT assay
Assay type: cell-based, human
Conditions: mean ± SD, at least three independent experiments
Experimental: The testing was performed on the following human cancer cell lines: breast adenocarcinoma (MCF-7), osteosarcoma (HOS), lung adenocarcinoma (A549), prostate adenocarcinoma (PC-3), ovarian carcinoma (A2780), cisplatin-resistant ovarian carcinoma (A2780R) and colorectal adenocarcinoma (Caco-2) obtained from ATCC collection of cell lines and cultivated according to producer’s instructions.
The value called pIC50 is obtained by taking minus log10 of the concentration in mol/L.

Inquiry: Note pIC50 for the compound shown: CC(C)=CCc1c2c(c3occ(-c4ccc(O)c(O)c4)c(=O)c3c1[O-])C=CC(C)(C)O2.CO.O=[N+]([O-])[O-].[Cu+2].c1ccc(-c2ccnc3c2ccc2c(-c4ccccc4)ccnc23)cc1
Reply text: 4.89

Inquiry: Note pIC50 for the compound shown: CC(C)=CCc1c2c(c3occ(-c4ccc(O)c(O)c4)c(=O)c3c1[O-])C=CC(C)(C)O2.CO.CO.O=[N+]([O-])[O-].[Cu+2].c1cnc2c(c1)ccc1cccnc12
Reply text: 4.89

Inquiry: Note pIC50 for the compound shown: CC(C)=CCc1c2c(c3occ(-c4ccc(O)c(O)c4)c(=O)c3c1[O-])C=CC(C)(C)O2.CO.CO.O=[N+]([O-])[O-].[Cu+2].c1ccc(-c2ccccn2)nc1
Reply text: 4.66
